In this section, each of the compounds is paired with its reported Emax.
Target: Human TREM2 (Homo sapiens)
Construct: expressed in transfected cells
Sequence (Q9NZC2 19-230): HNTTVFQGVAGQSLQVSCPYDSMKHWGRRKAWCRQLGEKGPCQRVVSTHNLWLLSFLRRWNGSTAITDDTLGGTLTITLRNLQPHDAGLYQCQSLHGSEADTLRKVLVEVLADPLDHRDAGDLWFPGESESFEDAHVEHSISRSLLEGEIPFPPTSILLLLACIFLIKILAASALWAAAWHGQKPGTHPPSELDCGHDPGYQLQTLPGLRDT
Sequence (O43914 22-113 partner): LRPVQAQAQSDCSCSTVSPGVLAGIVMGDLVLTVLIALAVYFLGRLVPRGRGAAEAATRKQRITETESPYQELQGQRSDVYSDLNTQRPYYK
Assay: Human TREM2 cellular phospho-Syk AlphaLISA assay in HEK293/DAP12+TREM2 stable cell line
Type: cell-based
Conditions: maximal response relative to the maximal response of the reference agonist; phospho-Syk AlphaLISA, HEK293/DAP12+TREM2 cells

In the examples that follow, each entry is paired with its recorded Emax.
>>> df
                  compound_structure_string  reported
0  Cc1c(OC2CN(c3nc(-c4ccc(C#N)cc4F)c4nc(C(F)(F)F)n(C)c(=O)c4n3)C2)cnn1C     < 75%
1  Cc1cncc(OC2CN(c3nc(-c4ccc(C#N)cc4F)c4nc(C(F)(F)F)n(C)c(=O)c4n3)C2)n1     < 75%
2  Cn1c(C(F)(F)F)nc2c(-c3ccc(C#N)cc3F)nc(N3CC(Oc4cnn(CC5CC5)c4)C3)nc2c1=O    > 110%

## Input Please supply the value of reported Emax for the item Cn1c(C(F)(F)F)nc2c(-c3ccc(C#N)cc3F)nc(N3CC(Oc4ccnc(OC(F)F)c4)C3)nc2c1=O
## Output 75 to 110%

## Input Please supply the value of reported Emax for the item Cn1c(C(F)(F)F)nc2c(-c3ccc(F)cc3F)nc(N3CC(Oc4cnn(C5CC5)c4)C3)nc2c1=O
## Output < 75%

## Input Please supply the value of reported Emax for the item Cn1c(C(F)(F)F)nc2c(-c3ccc(F)cc3F)nc(N3CC(Oc4cnn(C5CC5)c4)C3)cc2c1=O
## Output < 75%

## Input Please supply the value of reported Emax for the item Cn1c(C(F)(F)F)nc2c(-c3ccc(C#N)cc3F)nc(N3CC(Oc4cnn(C5CCCC5)c4)C3)nc2c1=O
## Output 75 to 110%

## Input Please supply the value of reported Emax for the item Cn1c(C(F)(F)F)nc2c(-c3ccc(C#N)cc3F)nc(N3CC(Oc4nncs4)C3)nc2c1=O
## Output < 75%
